biological target: DRB1*0901 (Homo sapiens, UniProt P01903+P01911, A100R/A103E/D57H/D86V/F55Y/F60I/F76Y/I96F/K127E/L162R/M171V/P40D/Q125H/Q99R/R33Q/R42F/S133A/S66N/T210M/V115G/W38K/Y107V/Y59G/Y89S); assay: biochemical; type: binding
pIC50: −log10 of the molar value. No end group written: not given here.
Measured endpoint: pIC50

Example sequences with recorded pIC50:
Sequence content: LSQRLNVCQDKILEH [Peptide 1601.21]
Measured endpoint: pIC50
Obs value: < 4.70
--
Sequence content: LKTVKIPNTVQVIQG [Peptide 90.0017]
Measured endpoint: pIC50
Obs value: < 4.70
--
Sequence content: PCHTTKLLHRDSVDS [Peptide 1601.07]
Measured endpoint: pIC50
Obs value: < 4.70
--
Sequence content: EVHVGGQVIVCPTSI [Peptide 89.0184]
Measured endpoint: pIC50
Obs value: < 4.70
--
Sequence content: EYVLDLYPEPTDLYC [Peptide 1543.12]
Measured endpoint: pIC50
Obs value: < 4.70

Hi, could you look up pIC50 for each item in my list?
1. CWTYFDNYMRNALDG [Peptide 89.0090]
2. EVHMENESIYCPDSV [Peptide 90.0238]
3. LVQIKCPPLLITTNI [Peptide 89.0138]
4. IHFLKGCIISYVNSK [Peptide 89.0147]
5. GKSYFGMSLIQFLKG [Peptide 89.0075]
6. DIAYKYAQLADVNSN [Peptide 89.0108]

1: < 4.70; 2: < 4.70; 3: < 4.70; 4: < 4.70; 5: 7.14; 6: 4.97

Hi, could you look up pIC50 for each item in my list?
1. LSGLHGQDLFGIWSK [Peptide 68.0040]
2. NHQVVPALSVSKAKA [Peptide 89.0168]
3. LIKFFQGSVISFVNS [Peptide 89.0135]
4. DFLNTVKIPNTVSVS [Peptide 1601.28]
5. CTLVAGEVDYVGLYY [Peptide 90.0252]
6. RLNLDNDEDKENNGD [Peptide 90.0144]

1: < 4.70; 2: < 4.70; 3: < 4.70; 4: 6.43; 5: 6.01; 6: 4.71

Hi, could you look up pIC50 for each item in my list?
1. DSDIAYYYAQLADSN [Peptide 89.0071]
2. DCKWGVLILALLRYK [Peptide 89.0026]
3. RLTVSKLMSQLLNIP [Peptide 89.0100]
4. FKKFLKGIPKKSCML [Peptide 89.0073]
5. AQEVHNDAQVLHVLK [Peptide 90.0047]
6. DNDVMDDSEIAYKYA [Peptide 90.0069]

[5.63, 6.00, "< 4.70", 5.61, 4.99, "< 4.70"]
